- System: CD2F1 mice, L1210 leukemia ip, survival T/C
- test.method.notes: NCI In Vivo Anticancer Drug Screen. Data for tumor model L1210 Leukemia (intraperitoneal) in CD2F1 (CDF1) mice
- run.parameters: endpoint: mean survival time; dose: 400.0 mg/kg/injection; schedule: Q04DX003 (ip); vehicle: Klucel (hydroxypropylcellulose) (HPC); higher = longer survival
- Method: The antitumor activity of compounds was measured in mice bearing transplantable tumors. Survival or tumor size were measured and the results are expressed as the measurement made in the treated group (T) divided by the measurement made in the vehicle treated control group (C). The tumor model used in this assay is L1210 Leukemia (intraperitoneal) in CD2F1 (CDF1) mice
Inconclusive results and toxic doses are left out.

# molecule, T/C
measured = [
    ("Nc1ccn(CCC(COCc2ccccc2)COCc2ccccc2)c(=O)n1", "96 % of control"),
    ("CCCCOC(=O)c1ccc(Cl)c(Cl)c1", "103 % of control"),
    ("CCOC(=O)c1cc(OC(C)=O)c2c(ccc3ccccc32)c1C", "97 % of control"),
    ("CCCC(=O)C(CC)C(O)(C(F)(F)F)C(F)(F)F (stereo not given)", "86 % of control"),
    ("O=C(O)c1ccccc1C(=O)Nc1cccc(Cl)c1", "98 % of control"),
]

###

Attribute: T/C
- Test system: CD2F1 mice, L1210 leukemia ip, survival T/C
- test.method.notes: NCI In Vivo Anticancer Drug Screen. Data for tumor model L1210 Leukemia (intraperitoneal) in CD2F1 (CDF1) mice
- run.parameters: endpoint: mean survival time; dose: 300.0 mg/kg/injection; schedule: Q01DX001 (ip); vehicle: saline; higher = longer survival
Toxic doses and inconclusive results are not listed.

# compound, assay.target, T/C
records = [
    ("CCOC(=O)c1c2c(n3ccccc13)C(=O)c1ccccc1C2=O", "CD2F1 mice, L1210 leukemia ip, survival T/C", "105 % of control"),
    ("CNC1C(CO)OC(n2cnc3c(N)ncnc32)C1O (stereo not given)", "CD2F1 mice, L1210 leukemia ip, survival T/C", "109 % of control"),
    ("CCOC(=O)/C(C#N)=C1/C=CCCC1", "CD2F1 mice, L1210 leukemia ip, survival T/C", "97 % of control"),
    ("CC(=O)c1c(C(=O)O)c(=O)oc2cc(O)ccc12", "CD2F1 mice, L1210 leukemia ip, survival T/C", "98 % of control"),
    ("O=C1c2ccccc2C(=O)c2c(NC3CCCCC3)ccc(Nc3ccc(S(=O)(=O)O)cc3)c21", "CD2F1 mice, L1210 leukemia ip, survival T/C", "103 % of control"),
]

###

- Test system: CD2F1 mice, L1210 leukemia ip, survival T/C
- test.method.notes: NCI In Vivo Anticancer Drug Screen. Data for tumor model L1210 Leukemia (intraperitoneal) in CD2F1 (CDF1) mice
- run.parameters: endpoint: mean survival time; dose: 100.0 mg/kg/injection; schedule: Q01DX009 (ip); vehicle: Klucel (hydroxypropylcellulose) (HPC); higher = longer survival
Toxic doses and inconclusive results are not listed.
measure.name: T/C

# compound.smiles, measurement
data = [
    ("Nc1cc(OCC(=O)O)c(Cl)cc1Cl", "89 % of control"),
    ("O=C(N/N=C\\c1cc(Cl)ccc1[N+](=O)[O-])c1ccccc1", "100 % of control"),
    ("CCCCS(CCCC)=NS(=O)(=O)c1ccc(C)cc1", "94 % of control"),
]
